assay: Pharmacokinetics in mice; type: in vivo; conditions: ICR, mouse, plasma, 5 mg/kg, po. 5 mpk, read-out: Exposure dose AUC
observedProperty: AUC
Lab note: write values as number then unit, every time.

# compound, AUC
records = [
    ("CC(C)c1cc(Oc2c(Cl)cc(-n3nc(C#N)c(=O)[nH]c3=O)cc2Cl)n[nH]c1=O [MGL-3196, reference compound]", "9960 ng·h/mL"),
]

Task: Indicate its recorded AUC; the compound in question is [2H]C([2H])([2H])C(c1cc(Oc2c(Cl)cc(-n3nc(C#N)c(=O)[nH]c3=O)cc2Cl)n[nH]c1=O)C([2H])([2H])[2H] [Compound 1]
Result: 18500 ng·h/mL

Task: Indicate its recorded AUC; the compound in question is [2H]C([2H])([2H])C(C)c1cc(Oc2c(Cl)cc(-n3nc(C#N)c(=O)[nH]c3=O)cc2Cl)n[nH]c1=O (stereo not drawn) [Compound 3]
Result: 23100 ng·h/mL
